meta.source: ChEMBL document CHEMBL4513216

test: Toxicity liver stage against HepG2, at 10uM; assay type: cell-based; set-up: test concentration 10 uM, cell line HepG2-A16-CD81EGFP; conditions: human, HepG2-A16-CD81EGFP cells; read-out: INHIBITION
We begin with a simple list: items and their reported cytotoxicity at 10 µM.

COMPOUND | cytotoxicity at 10 µM [%]
CN(C)CCN1CCCC12CCCN(Cc1ccoc1)C2 (stereo unspecified) | 7.88
c1ccn2c(SCC3CN=C(N4CCOCC4)S3)ncc2c1 (stereo unspecified) | 11.8
Cn1cccc1C(=O)NC[C@]12COC[C@H]1CN(Cc1nccs1)C2 | -2.74
Cc1ccccc1CNC(=O)c1ccccc1-n1cc(CN)cn1 | -21
CC(C)C[C@H](NCc1cc(O)c2cccc(F)c2n1)C(N)=O | 5.71
COc1ccc(C2=CCN(C(=O)C3CCN(C)C(=O)C3)CC2)cc1 (stereo unspecified) | -9.09

* * *

assay: Toxicity liver stage against HepG2, at 10uM; assay type: cell-based; design: test concentration 10 uM, cell line HepG2-A16-CD81EGFP; conditions: human, HepG2-A16-CD81EGFP cells; read-out: INHIBITION
We begin with a simple list: items and their reported cytotoxicity at 10 µM.

COMPOUND | UNIT ABBREVIATION | cytotoxicity at 10 µM
CC(C#N)(NC(=O)c1ccc(C#N)cc1)C1CC1 (stereo unspecified) | % | -3.67
Cc1cc(F)cc(S(=O)(=O)Nc2noc(C)n2)c1 | % | 3.11
Cc1ccc(NC(=O)c2cccc(OCc3nnnn3C)c2)nc1 | % | 4.4
Cc1nn(C)c(C)c1NC(=O)CNC(c1ccccc1)C1CCC1 (stereo unspecified) | % | 1.44
O=C(Nc1ccc(F)cc1F)NC1(CO)CCOCC1 | % | -40.4
Cc1noc(NS(=O)(=O)c2ccc(Cl)s2)c1C | % | 5.3

* * *

assay: Toxicity liver stage against HepG2, at 10uM; assay type: cell-based; design: test concentration 10 uM, cell line HepG2-A16-CD81EGFP; settings: human, HepG2-A16-CD81EGFP cells; read-out: INHIBITION
We begin with a simple list: items and their reported cytotoxicity at 10 µM.
METRIC: cytotoxicity at 10 µM (%)

MOLECULE | METRIC | TEST RESULT
CCOCCC1(CNC(=O)c2ccc(C)nc2)CCCC1 | cytotoxicity at 10 µM | 7.25
CN1CCN(Cc2cnc3n2CCN(C(=O)c2cscn2)C3)CC1 | cytotoxicity at 10 µM | -78.2
OCCN1CCN(Cc2cc(Cl)cc3cccnc23)CC1 | cytotoxicity at 10 µM | -8.12
COc1ccccc1CC1CCCN(CCN2CCOC2=O)C1 (stereo not given) | cytotoxicity at 10 µM | 6.93
CN1CCOCC2(CCCN(C(=O)c3ccccc3F)C2)C1 (stereo not given) | cytotoxicity at 10 µM | -91.4
CCCN(CC1COc2ccccc2O1)C(=O)CCn1cncn1 (stereo not given) | cytotoxicity at 10 µM | -0.627
CCC(CC)c1cc(CNC(=O)N2CCC(CO)CC2)on1 | cytotoxicity at 10 µM | 3.76
CN(C)Cc1nnc(C2CCN(c3nccc(N)n3)CC2)n1C1CC1 | cytotoxicity at 10 µM | -1.99
CC(=O)c1ccc(OCC(=O)NC(C)CCc2ccco2)cc1 (stereo not given) | cytotoxicity at 10 µM | -9.96
CCN(Cc1ccncc1)C(=O)CCn1c(C)cc2ccccc21 | cytotoxicity at 10 µM | -3.38
CC(C)c1nc(C(=O)N2CCOCC2CC(=O)c2ccco2)cs1 (stereo not given) | cytotoxicity at 10 µM | -7.58
Cn1cc(CN2CCC(c3cc(CCO)[nH]n3)C2)cn1 (stereo not given) | cytotoxicity at 10 µM | 3.19
CCOc1cc(C)nc(N2CCN(C(=O)c3ccncc3)CC2)n1 | cytotoxicity at 10 µM | 3.12
CCOCC(O)CN1CCN(C(=O)c2cccc(OC)c2)CC1 (stereo not given) | cytotoxicity at 10 µM | -0.874
CC(C)(C)C(=O)N1CCN(Cn2nccc2-c2cccnc2)CC1 | cytotoxicity at 10 µM | 8.27
O=C(c1cccc2c1OCO2)N1CCC(N2CCCC2)CC1 | cytotoxicity at 10 µM | -2.35
CC(C(=O)NCCN1CCN(C)CC1)n1cncn1 (stereo not given) | cytotoxicity at 10 µM | 0.449
CN(C)S(=O)(=O)N1CCCC(c2nccnc2-c2cccc(Cl)c2)C1 (stereo not given) | cytotoxicity at 10 µM | 8.23
COC(=O)c1ccc(N2CCN(C(=O)CCCc3cn[nH]c3)CC2)cc1 | cytotoxicity at 10 µM | -4.32
O=C(CCc1ccncc1)Nc1ccc(OCC2CC2)cc1 | cytotoxicity at 10 µM | -2.56
O=C1CCNc2ccc(F)cc2CN1Cc1ccccc1 | cytotoxicity at 10 µM | -3.03
CC(C)CN1CCN(C(=O)c2cc(=O)c3ccccc3[nH]2)CC1 | cytotoxicity at 10 µM | -4.92
O=S(=O)(c1cccs1)N1CCCC(c2nccs2)C1 (stereo not given) | cytotoxicity at 10 µM | -15
CCN(CC)C(=O)c1cccc(Cn2nc(C)cc2C)c1 | cytotoxicity at 10 µM | -5.93
c1ccc(OCCCNCc2cccs2)nc1 | cytotoxicity at 10 µM | -0.336

* * *

experiment: Toxicity liver stage against HepG2, at 10uM; assay type: cell-based; set-up: test concentration 10 uM, cell line HepG2-A16-CD81EGFP; settings: human, HepG2-A16-CD81EGFP cells; read-out: INHIBITION

COMPOUND | cytotoxicity at 10 µM, %
Cc1cc(C)n(-c2cccc(NC(=O)N3CCC[C@@H]3CO)c2)n1 | 13.9
COCCNC(=O)CSCc1nc(O)c2cc(C(C)C)sc2n1 | -3.46
CCn1cnnc1C1CCN(C(=O)c2cc(C)c(C)s2)CC1 | -26.9
CSc1cccc(NC(=O)Nc2c(O)oc3ccccc3c2=O)c1 | 4.45
COc1cccc(OC)c1C(=O)N1CC(=O)N(C2CCC2)CC(O)C1 (stereo unspecified) | -5.59
Cc1nc(-c2ccc(Cl)s2)sc1C(=O)NCCCC(N)=O | -5.6

* * *

assay: Toxicity liver stage against HepG2, at 10uM; type: cell-based; parameters: test concentration 10 uM, cell line HepG2-A16-CD81EGFP; conditions: human, HepG2-A16-CD81EGFP cells; read-out: INHIBITION

MOLECULE | cytotoxicity at 10 µM, %
Cc1cc(NC(=O)CCN2CCCC2Cn2cncn2)no1 (centres undefined) | 4.26
CC(C)N[C@@H]1CO[C@H](CNC(=O)Nc2ccccc2)[C@H]1O | 1.53
CCCn1cc(C(=O)NC(C(=O)O)c2ccccc2C(F)(F)F)c(C)n1 (centres undefined) | -50.2
Cc1cccc(S(=O)(=O)N2C[C@@H]3C[C@@H](c4nc(C)no4)O[C@@H]3C2)c1 | -1.05
Fc1ccc2[nH]c3c(c2c1)CCN1C(c2ccccn2)N2CCC31CC2 (centres undefined) | 6.16
CC(=O)c1cc(CN2CCCC2c2nc3ccc(C)cc3[nH]2)cs1 (centres undefined) | 3.01
Cn1nnn(-c2ccc(NS(=O)(=O)c3ccc(Br)cc3)cc2)c1=O | -2.77
CCc1ncc(S(C)(=O)=O)c(C2CCCNC2)n1 (centres undefined) | -14.2
CCn1c(=O)n(CC)c2cc(S(N)(=O)=O)ccc21 | -7.72
CCc1nnc2n1CCN(CCS(=O)(=O)c1ccccc1)C2 | -11.6
COCC(O)CN1CCC(NC(=O)c2cscc2C)CC1 (centres undefined) | -4.51
Cc1cc(C(=O)N2CCCC(n3cccn3)C2)c(C)n1C1CC1 (centres undefined) | -16.7
Cc1ccc(N2CCOCC3(CCCN(c4ncc(F)cn4)C3)C2)nn1 (centres undefined) | -123
CC(C)S(=O)(=O)NCC1CCCN(C(=O)c2ccc(F)cc2)C1 (centres undefined) | 4.68
CC(C(=O)N1CCCN(c2ccccc2C#N)CC1)n1cccn1 (centres undefined) | -8.3
CCOc1cc(C)nc(N2CCN(C(=O)c3cc(C)on3)CC2)n1 | -1.61
CCN(CC1CCOC1)C(=O)CCc1nc(C(C)(C)C)no1 (centres undefined) | -1.26
CN(CCCc1cnn(C)c1)Cc1cc2n(n1)CCNC2 | 11.1
c1coc(-c2nc3c(c(N4CCCN5CCC[C@H]5C4)n2)CCNCC3)c1 | -9.88
Cn1nc(N2CCCC(C(=O)Nc3nc4ccccc4s3)C2)ccc1=O (centres undefined) | 27.6
COCC(=O)N1CCCCC1c1nccc(C)n1 (centres undefined) | -14.6
COc1cccc(C(C(=O)O)N2CCC(Cn3cccn3)CC2)c1OC (centres undefined) | -1.77
COCCN(CCOC)C(=O)c1cc(F)cc2[nH]cnc12 | -8
CCOCCN1CCN(c2ccc(C#N)cn2)CC1 | -4.21
